- Experimental Target: Melanocortin receptor 4 (Mus musculus)
- Protocol Summary: Displacement of MTII from mouse MC4R expressed in HEK293 cells
- Format: cell-based
Where a SMILES comes first, the peptide text is derived from it. [ ]: non-standard residue; d: D form. Bip = N[C@@H](Cc1ccc(-c2ccccc2)cc1)C(=O)O
Reported Metric: Ki (nM)
Give bare numbers, in nM.

Some solved entries appear below for comparison.
{"Molecule": "C[C@@H]1NC(=O)[C@H](CC(N)=O)NC(=O)[C@H](Cc2ccccc2)NC(=O)[C@H](Cc2ccc(-c3ccccc3)cc2)NC(=O)[C@H](CCCNC(=N)N)NC(=O)[C@@H]2CCCN2C(=O)[C@H]2CCCN2C(=O)[C@H](Cc2ccccc2)NC1=O (cyclo(R[Bip]FNAF[dP]P))", "Reported Metric": "Ki", "Meas Value": 160}
{"Molecule": "C[C@@H]1NC(=O)[C@H](CC(N)=O)NC(=O)[C@H](Cc2ccc(-c3ccccc3)cc2)NC(=O)[C@H](Cc2ccccc2)NC(=O)[C@H](CCCNC(=N)N)NC(=O)[C@@H]2CCCN2C(=O)[C@H]2CCCN2C(=O)[C@H](Cc2ccccc2)NC1=O", "Reported Metric": "Ki", "Meas Value": 160}
{"Molecule": "C[C@@H]1NC(=O)CNC(=O)[C@H](Cc2ccccc2)NC(=O)[C@H](Cc2ccccc2)NC(=O)[C@H](CCCNC(=N)N)NC(=O)[C@@H]2CCCN2C(=O)[C@H]2CCCN2C(=O)[C@H](Cc2ccccc2)NC1=O", "Reported Metric": "Ki", "Meas Value": 4}

Now for the molecule whose Ki we want.
GET /values?readout=Ki&item= `C[C@@H]1NC(=O)[C@H](CCCCN)NC(=O)[C@H](Cc2ccccc2)NC(=O)[C@H](Cc2ccccc2)NC(=O)[C@H](CCCNC(=N)N)NC(=O)[C@@H]2CCCN2C(=O)[C@H]2CCCN2C(=O)[C@H](Cc2ccccc2)NC1=O`
5

====

- Experimental Target: UniProt Q01727
- Protocol Summary: Agonist activity at mouse MC1R expressed in HEK293 cells by cAMP functional bioassay
- Format: cell-based
- Run Conditions: hek293
Where a SMILES comes first, the peptide text is derived from it. [ ]: non-standard residue; d: D form. 1Nal = N[C@@H](Cc1cccc2ccccc12)C(=O)O
Strictly below 9 µM in EC50: T. Otherwise: F.

The examples below pair each entry with its known result.
{"Compound": "C[C@@H]1NC(=O)[C@H](CC(N)=O)NC(=O)[C@H](Cc2cccc3ccccc23)NC(=O)[C@H](Cc2ccccc2)NC(=O)[C@H](CCCNC(=N)N)NC(=O)[C@@H]2CCCN2C(=O)[C@H]2CCCN2C(=O)[C@H](Cc2ccccc2)NC1=O", "Cat": "F"}
{"Compound": "C[C@@H]1NC(=O)[C@H](CC(N)=O)NC(=O)[C@H](c2ccccc2)NC(=O)[C@H](Cc2ccccc2)NC(=O)[C@H](CCCNC(=N)N)NC(=O)[C@@H]2CCCN2C(=O)[C@H]2CCCN2C(=O)[C@H](Cc2ccccc2)NC1=O", "Cat": "F"}
{"Compound": "C[C@@H]1NC(=O)[C@H](CC(N)=O)NC(=O)[C@H](Cc2ccccc2)NC(=O)[C@H](Cc2cccc3ccccc23)NC(=O)[C@H](CCCNC(=N)N)NC(=O)[C@@H]2CCCN2C(=O)[C@H]2CCCN2C(=O)[C@H](Cc2ccccc2)NC1=O (cyclo(R[1Nal]FNAF[dP]P))", "Cat": "T"}

Hello, I'm reviewing records and need to know if EC50 of `C[C@@H]1NC(=O)[C@H](CC(N)=O)NC(=O)[C@H](CCc2ccccc2)NC(=O)[C@H](Cc2ccccc2)NC(=O)[C@H](CCCNC(=N)N)NC(=O)[C@@H]2CCCN2C(=O)[C@H]2CCCN2C(=O)[C@H](Cc2ccccc2)NC1=O` is below 9 µM. Could you check?
F

====

Task for the reader: assign each of the following compounds its reported Kb.
- Experimental Target: Melanocortin receptor 3 (Mus musculus)
- Sequence (P33033 whole entry): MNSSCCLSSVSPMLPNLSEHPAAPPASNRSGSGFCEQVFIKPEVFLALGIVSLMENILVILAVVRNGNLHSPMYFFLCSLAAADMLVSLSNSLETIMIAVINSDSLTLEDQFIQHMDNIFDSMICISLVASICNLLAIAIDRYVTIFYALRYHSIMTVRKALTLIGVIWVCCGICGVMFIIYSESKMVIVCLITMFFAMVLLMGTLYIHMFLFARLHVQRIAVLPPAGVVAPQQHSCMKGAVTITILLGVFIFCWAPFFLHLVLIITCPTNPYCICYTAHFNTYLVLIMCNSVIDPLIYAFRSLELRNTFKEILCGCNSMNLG
- Protocol Summary: Displacement of MTII from mouse MC3R expressed in HEK293 cells
- Type: cell-based
- Run Conditions: read-out: pA2 (converted)
Where a SMILES comes first, the peptide text is derived from it. [ ]: non-standard residue; d: D form. Bip = N[C@@H](Cc1ccc(-c2ccccc2)cc1)C(=O)O
One number for each entry, in nM.

{"Compound": "C[C@@H]1NC(=O)[C@H](CC(N)=O)NC(=O)[C@H](Cc2ccccc2)NC(=O)[C@H](Cc2ccc(-c3ccccc3)cc2)NC(=O)[C@H](CCCNC(=N)N)NC(=O)[C@@H]2CCCN2C(=O)[C@H]2CCCN2C(=O)[C@H](Cc2ccccc2)NC1=O (cyclo(R[Bip]FNAF[dP]P))", "Scale Unit": "nM", "Kb": 631}

Would you mind listing Kb for each of the following compounds?
1. CC(=O)N[C@H](C(=O)N[C@H]1CSSC[C@@H](C(=O)N[C@@H](CCCNC(=N)N)C(N)=O)NC(=O)[C@H](Cc2ccc(O)cc2)NC(=O)[C@H]2CSSC[C@H](NC(=O)[C@H](Cc3ccc(O)cc3)NC1=O)C(=O)N[C@@H](CCCNC(=N)N)C(=O)N[C@@H](Cc1ccccc1)C(=O)N[C@@H](Cc1ccccc1)C(=O)N[C@@H](CC(N)=O)C(=O)N[C@@H](C)C(=O)N[C@@H](Cc1ccccc1)C(=O)N2)[C@@H](C)O
2. C[C@@H]1NC(=O)CNC(=O)[C@H](Cc2ccccc2)NC(=O)[C@H](Cc2ccccc2)NC(=O)[C@H](CCCNC(=N)N)NC(=O)[C@@H]2CCCN2C(=O)[C@H]2CCCN2C(=O)[C@H](Cc2ccccc2)NC1=O

1. 631
2. 25.1

====

Task for the reader: assign each of the following compounds its reported Activity.
- Experimental Target: Melanocyte-stimulating hormone receptor (Mus musculus) (UniProt Q01727)
- Sequence (Q01727 whole entry, looked up): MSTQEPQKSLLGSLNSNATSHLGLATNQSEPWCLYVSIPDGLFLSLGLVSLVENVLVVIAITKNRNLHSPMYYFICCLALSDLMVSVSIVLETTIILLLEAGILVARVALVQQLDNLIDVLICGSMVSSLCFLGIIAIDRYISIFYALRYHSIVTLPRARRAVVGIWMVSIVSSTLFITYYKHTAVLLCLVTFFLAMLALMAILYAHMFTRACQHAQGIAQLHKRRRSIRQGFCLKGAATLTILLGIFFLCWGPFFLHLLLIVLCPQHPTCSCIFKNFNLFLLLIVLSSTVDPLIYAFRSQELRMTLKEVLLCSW
- Protocol Summary: Agonist activity at mouse MC1R expressed in HEK293 cells at 100 uM by cAMP functional bioassay
- Type: cell-based
Answers are plain numbers, in %.

Some solved entries appear below for comparison.
{"Compound": "C[C@@H]1NC(=O)C(CN)NC(=O)[C@H](Cc2ccccc2)NC(=O)[C@H](Cc2ccccc2)NC(=O)[C@H](CCCNC(=N)N)NC(=O)[C@@H]2CCCN2C(=O)[C@H]2CCCN2C(=O)[C@H](Cc2ccccc2)NC1=O (some centres undefined)", "Reported Metric": "Activity", "Meas Value": 75}
{"Compound": "C[C@@H]1NC(=O)C(CCCN)NC(=O)[C@H](Cc2ccccc2)NC(=O)[C@H](Cc2ccccc2)NC(=O)[C@H](CCCNC(=N)N)NC(=O)[C@@H]2CCCN2C(=O)[C@H]2CCCN2C(=O)[C@H](Cc2ccccc2)NC1=O (some centres undefined)", "Reported Metric": "Activity", "Meas Value": 30}
{"Compound": "C[C@@H]1NC(=O)C(CCN)NC(=O)[C@H](Cc2ccccc2)NC(=O)[C@H](Cc2ccccc2)NC(=O)[C@H](CCCNC(=N)N)NC(=O)[C@@H]2CCCN2C(=O)[C@H]2CCCN2C(=O)[C@H](Cc2ccccc2)NC1=O (some centres undefined)", "Reported Metric": "Activity", "Meas Value": 50}

GET /values?readout=Activity&item= `C[C@@H]1NC(=O)CNC(=O)[C@H](Cc2ccccc2)NC(=O)[C@H](Cc2ccccc2)NC(=O)[C@H](CCCNC(=N)N)NC(=O)[C@@H]2CCCN2C(=O)[C@H]2CCCN2C(=O)[C@H](Cc2ccccc2)NC1=O`
50

====

Task for the reader: assign each of the following compounds its reported Ki.
- Experimental Target: Melanocortin receptor 4 (Mus musculus, UniProt P56450)
- Sequence (P56450 whole entry): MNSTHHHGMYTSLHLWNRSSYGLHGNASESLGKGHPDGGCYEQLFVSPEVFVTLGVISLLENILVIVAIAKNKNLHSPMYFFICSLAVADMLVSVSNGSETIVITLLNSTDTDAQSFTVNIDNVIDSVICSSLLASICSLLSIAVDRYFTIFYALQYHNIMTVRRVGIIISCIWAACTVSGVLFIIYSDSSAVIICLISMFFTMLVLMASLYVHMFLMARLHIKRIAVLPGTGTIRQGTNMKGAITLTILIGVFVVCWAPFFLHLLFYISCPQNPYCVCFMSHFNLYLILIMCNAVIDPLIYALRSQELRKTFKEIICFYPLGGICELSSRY
- Protocol Summary: Displacement of MTII from mouse MC4R expressed in HEK293 cells
- Type: cell-based
- Run Conditions: hek293
Where a SMILES comes first, the peptide text is derived from it. [ ]: non-standard residue; d: D form. 1Nal = N[C@@H](Cc1cccc2ccccc12)C(=O)O
One number for each entry, in nM.

{"Compound": "C[C@@H]1NC(=O)[C@H](CC(N)=O)NC(=O)[C@H](Cc2ccccc2)NC(=O)[C@H](CCc2ccccc2)NC(=O)[C@H](CCCNC(=N)N)NC(=O)[C@@H]2CCCN2C(=O)[C@H]2CCCN2C(=O)[C@H](Cc2ccccc2)NC1=O", "Ki, nM": 100}
{"Compound": "C[C@@H]1NC(=O)[C@H](CC(N)=O)NC(=O)[C@H](Cc2ccccc2)NC(=O)[C@H](Cc2cccc3ccccc23)NC(=O)[C@H](CCCNC(=N)N)NC(=O)[C@@H]2CCCN2C(=O)[C@H]2CCCN2C(=O)[C@H](Cc2ccccc2)NC1=O (cyclo(R[1Nal]FNAF[dP]P))", "Ki, nM": 16}

Would you mind listing Ki for each of the following compounds?
1. C[C@@H]1NC(=O)[C@H](CC(N)=O)NC(=O)[C@H](Cc2cccc3ccccc23)NC(=O)[C@H](Cc2ccccc2)NC(=O)[C@H](CCCNC(=N)N)NC(=O)[C@@H]2CCCN2C(=O)[C@H]2CCCN2C(=O)[C@H](Cc2ccccc2)NC1=O
2. C[C@@H]1NC(=O)[C@H](CC(N)=O)NC(=O)[C@H](Cc2ccccc2)NC(=O)[C@H](Cc2ccc3ccccc3c2)NC(=O)[C@H](CCCNC(=N)N)NC(=O)[C@@H]2CCCN2C(=O)[C@H]2CCCN2C(=O)[C@H](Cc2ccccc2)NC1=O
3. C[C@@H]1NC(=O)[C@H](CC(N)=O)NC(=O)[C@H](c2ccccc2)NC(=O)[C@H](Cc2ccccc2)NC(=O)[C@H](CCCNC(=N)N)NC(=O)[C@@H]2CCCN2C(=O)[C@H]2CCCN2C(=O)[C@H](Cc2ccccc2)NC1=O
4. C[C@@H]1NC(=O)[C@H](CC(N)=O)NC(=O)[C@H](Cc2ccc3ccccc3c2)NC(=O)[C@H](Cc2ccccc2)NC(=O)[C@H](CCCNC(=N)N)NC(=O)[C@@H]2CCCN2C(=O)[C@H]2CCCN2C(=O)[C@H](Cc2ccccc2)NC1=O

1. 16
2. 100
3. 1300
4. 63

Values from ChEMBL document CHEMBL3576802
